Target: RAC-alpha serine/threonine-protein kinase (Homo sapiens)
Conditions: at 10 µM
measurement.type: residual activity (%)

CCC(=O)Nc1ccc2ncnc(Nc3cccc(Br)c3)c2c1
106
CN(C)c1ccc(/C=C2\C(=O)Nc3ccccc32)cc1
121
O=C(CCCc1ccc(-c2ccccc2F)cc1)Nc1ccc(O)cc1
105
O=C(c1ccccc1)c1ccc(N2CCOCC2)cc1O
98
O=C1Cc2c([nH]c3ccc([N+](=O)[O-])cc23)-c2ccccc2N1
104
CC#CC(=O)Nc1cc2c(Nc3ccc(F)c(Cl)c3)ncnc2cn1
107

----------
Each entry below lists one item and its recorded residual activity value.
Biological target: Mitogen-activated protein kinase 3 (Homo sapiens) (UniProt P27361)
Sequence (P27361 whole entry): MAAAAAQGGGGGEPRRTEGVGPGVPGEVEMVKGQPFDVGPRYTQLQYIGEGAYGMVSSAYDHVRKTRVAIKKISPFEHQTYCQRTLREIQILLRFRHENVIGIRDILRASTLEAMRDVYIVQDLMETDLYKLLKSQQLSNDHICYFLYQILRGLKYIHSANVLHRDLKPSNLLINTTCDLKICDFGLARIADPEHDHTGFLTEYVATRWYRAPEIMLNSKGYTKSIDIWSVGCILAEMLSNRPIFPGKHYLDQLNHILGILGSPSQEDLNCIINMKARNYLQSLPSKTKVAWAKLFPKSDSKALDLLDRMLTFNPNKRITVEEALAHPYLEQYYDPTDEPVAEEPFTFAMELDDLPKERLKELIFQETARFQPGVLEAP
Settings: at 1 µM
Description: Millipore: Percentage of residual kinase activity of MAPK3 at 1uM relative to control. Control inhibitor: ERK Inhibitor II at 30.0uM. Buffer: 25 mM Tris pH 7.5, 0.02 mM EGTA
measurement.type: residual activity (%)

N/C(=N\[N+](=O)[O-])N/N=C\c1ccc(-c2cccc([N+](=O)[O-])c2)o1
94
CC(C)[C@H](CO)Nc1nc(Nc2cccc(Cl)c2)c2ncn(C(C)C)c2n1
98
O=c1[nH]c2ccccc2n1C1CCN(Cc2ccc(-c3nc4cc5[nH]cnc5cc4nc3-c3ccccc3)cc2)CC1
105
COC(=O)[C@@]1(O)C[C@H]2O[C@]1(C)n1c3ccccc3c3c4c(c5c6ccccc6n2c5c31)C(=O)NC4
10
COc1cc2ncnc(Nc3ccc(OCc4ccccc4)cc3)c2cc1OC
93
CCn1cnc2c(Nc3cccc(Cl)c3)nc(N[C@@H]3CCCC[C@@H]3N)nc21
49
CC(C)(C)c1cc(C=C(C#N)C#N)cc(Br)c1O
129
